# Experimental target: T1, His-human LIGHT (human)
# T1 chain: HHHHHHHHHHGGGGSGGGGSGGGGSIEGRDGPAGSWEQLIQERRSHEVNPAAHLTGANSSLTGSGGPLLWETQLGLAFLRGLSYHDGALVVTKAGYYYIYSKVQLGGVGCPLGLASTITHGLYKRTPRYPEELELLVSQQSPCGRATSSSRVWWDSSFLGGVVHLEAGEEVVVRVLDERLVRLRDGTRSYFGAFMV
# Method: cell-based or functional assay
Measured IC50, HVEM NF-κB luciferase reporter, free LIGHT accompanies every entry in the list below.
Parameter measured: IC50, HVEM NF-κB luciferase reporter, free LIGHT

Binder: hum_LT-m37-5 (antibody, human IgG4, V domains shown, humanized from LT-m37) VH: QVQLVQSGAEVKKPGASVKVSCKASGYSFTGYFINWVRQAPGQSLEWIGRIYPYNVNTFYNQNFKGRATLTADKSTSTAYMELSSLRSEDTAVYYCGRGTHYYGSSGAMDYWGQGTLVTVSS VL: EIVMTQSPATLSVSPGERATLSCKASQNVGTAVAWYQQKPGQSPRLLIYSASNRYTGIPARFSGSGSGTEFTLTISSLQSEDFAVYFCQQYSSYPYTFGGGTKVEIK
Val: 0.062 µg/mL
//
Binder: hum_LT-m37-1 (antibody, human IgG4, V domains shown, humanized from LT-m37) VH: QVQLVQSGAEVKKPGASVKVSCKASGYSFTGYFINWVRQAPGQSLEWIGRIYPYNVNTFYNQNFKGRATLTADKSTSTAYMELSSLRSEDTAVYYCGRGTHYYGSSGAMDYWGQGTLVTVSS VL: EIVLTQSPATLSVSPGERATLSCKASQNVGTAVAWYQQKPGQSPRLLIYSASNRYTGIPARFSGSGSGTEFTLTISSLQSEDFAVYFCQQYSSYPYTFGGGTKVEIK
Val: 0.118 µg/mL
//
Binder: hum_LT-m37-3 (antibody, human IgG4, V domains shown, humanized from LT-m37) VH: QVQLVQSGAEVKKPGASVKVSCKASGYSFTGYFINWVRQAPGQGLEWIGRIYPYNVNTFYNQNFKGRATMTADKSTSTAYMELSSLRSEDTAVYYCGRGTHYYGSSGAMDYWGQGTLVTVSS VL: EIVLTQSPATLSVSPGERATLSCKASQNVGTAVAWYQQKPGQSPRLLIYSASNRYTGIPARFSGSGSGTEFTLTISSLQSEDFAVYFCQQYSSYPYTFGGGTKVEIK
Val: 0.0747 µg/mL
//
Binder: hum_LT-m37-2 (antibody, human IgG4, V domains shown, humanized from LT-m37) VH: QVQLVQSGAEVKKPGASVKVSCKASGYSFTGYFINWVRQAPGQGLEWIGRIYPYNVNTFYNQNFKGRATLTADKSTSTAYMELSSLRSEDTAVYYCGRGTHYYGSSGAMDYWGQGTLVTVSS VL: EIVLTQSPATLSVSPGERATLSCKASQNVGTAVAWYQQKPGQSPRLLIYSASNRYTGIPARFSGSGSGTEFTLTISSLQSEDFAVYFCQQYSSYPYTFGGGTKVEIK
Val: 0.0918 µg/mL

FYI, the data here is from patent EP4596580A1.
